Biological target: KRAS G12D (Homo sapiens (Human), UniProt P01116+P62937, G12D)
Sequence (P01116-2 other isoform, or with tags, fused parts or gaps G12D): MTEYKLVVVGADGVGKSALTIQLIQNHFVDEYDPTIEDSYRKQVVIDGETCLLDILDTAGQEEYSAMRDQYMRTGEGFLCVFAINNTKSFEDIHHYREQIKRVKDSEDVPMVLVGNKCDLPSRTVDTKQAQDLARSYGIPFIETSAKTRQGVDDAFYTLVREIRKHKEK
Sequence (P62937 whole entry): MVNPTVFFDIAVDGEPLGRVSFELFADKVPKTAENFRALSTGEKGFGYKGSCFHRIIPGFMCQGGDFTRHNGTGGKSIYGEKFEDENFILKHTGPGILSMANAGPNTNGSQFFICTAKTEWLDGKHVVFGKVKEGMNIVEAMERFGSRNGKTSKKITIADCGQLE
Experiment: Ras-Raf (BRAF RBD) disruption / FRET / MOA assay, KRAS G12D
Type: biochemical
Details: Ras-Raf disruption/FRET/MOA assay; class symbols; read-out: KRAS G12D FRET data IC50
pIC50: −log10 of the molar value.
# pIC50 per entry

compound	result
C=CC(=O)N1CC[C@H]2[C@@H]1CN2C(=O)N(C)[C@H](C(=O)N[C@H]1Cc2nc(cs2)-c2ccc3c(c2)c(c(-c2cccnc2[C@H](C)OC)n3CC)CC(C)(C)COC(=O)[C@@H]2CCCN(N2)C1=O)C(C)C (atropisomer, axis not shown)	5.00 to 6.00

Briefly, pIC50 measured for `C=CC(=O)N1CC[C@H](C(=O)N(C)[C@H](C(=O)N[C@@H]2C(=O)N3CCC[C@H](N3)C(=O)OCC(C)(C)Cc3c(-c4cncnc4)n(CC)c4ccc(cc34)-c3cccc(c3)[C@H]2OC)C(C)C)C1` : < 5.00

Briefly, pIC50 measured for C=CC(=O)N1C[C@H]2CN(C(=O)N(C)[C@H](C(=O)N[C@H]3Cc4nc(cs4)-c4ccc5c(c4)c(c(-c4cccnc4[C@H](C)OC)n5CC)CC(C)(C)COC(=O)[C@@H]4CCCN(N4)C3=O)C(C)C)[C@H]2C1 (atropisomer, axis not shown) : 5.00 to 6.00

Briefly, pIC50 measured for C=CC(=O)N1CC2(C1)OCCN2C(=O)N(C)[C@H](C(=O)N[C@H]1Cc2nc(cs2)-c2ccc3c(c2)c(c(-c2cccnc2[C@H](C)OC)n3CC)CC(C)(C)COC(=O)[C@@H]2CCCN(N2)C1=O)C(C)C (atropisomer, axis not shown) : 5.00 to 6.00

###

# IC50 per entry
Target: NRAS WT (Homo sapiens (Human), UniProt P01111+P62937)
Sequence (P01111 whole entry, one chain of several): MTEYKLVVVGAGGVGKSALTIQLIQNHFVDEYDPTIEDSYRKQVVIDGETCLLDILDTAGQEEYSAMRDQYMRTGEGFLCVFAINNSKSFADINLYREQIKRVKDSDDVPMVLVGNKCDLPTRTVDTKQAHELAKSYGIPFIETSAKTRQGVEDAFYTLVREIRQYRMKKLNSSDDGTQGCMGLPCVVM
Experiment: Ras-Raf (BRAF RBD) disruption / FRET / MOA assay, NRAS WT
Type: biochemical
Details: read-out: IC50* NRAS WT FRET data
Method: The purpose of this biochemical assay is to measure the ability of test compounds to facilitate ternary complex formation between a nucleotide-loaded Ras isoform and cyclophilin A; the resulting ternary complex disrupts binding to a BRAF^RBD construct, inhibiting Ras signaling through a RAF effector. […]. Compound is present in plate wells as a 10-point 3-fold dilution series starting at a final concentration of 30 μM. […]

// worked examples, IC50 included
compound	systemTested	IC50
C=CC(=O)N1CCC2(CCN(C(=O)N(C)[C@H](C(=O)N[C@H]3Cc4nc(cs4)-c4ccc5c(c4)c(c(-c4cccnc4[C@H](C)OC)n5CC)CC(C)(C)COC(=O)[C@@H]4CCCN(N4)C3=O)C(C)C)CC2)C1 (atropisomer, axis not shown)	NRAS WT (Homo sapiens (Human), UniProt P01111+P62937)	0.1 to 1 µM
CC#CC(=O)N1CC[C@H](C(=O)N(C)[C@H](C(=O)N[C@H]2Cc3cccc(c3)-c3ccc4c(c3)c(c(-c3cccnc3[C@H](C)OC)n4C#N)CC(C)(C)COC(=O)[C@@H]3CCCN(N3)C2=O)C(C)C)C1 (atropisomer, axis not shown)	NRAS WT (Homo sapiens (Human), UniProt P01111+P62937)	> 10 µM
CO[C@@H](C)c1ncccc1-c1c2c3cc(ccc3n1CC(F)(F)F)-c1cc(F)cc(c1)C[C@H](NC(=O)[C@@H](COC1CN(C(=O)C#CC(C)(C)N(C)C)C1)C(C)C)C(=O)N1CCC[C@H](N1)C(=O)OCC(C)(C)C2 (atropisomer, axis not shown)	NRAS WT (Homo sapiens (Human), UniProt P01111+P62937)	1 to 10 µM

Then this compound:
Briefly, IC50 measured for CCn1c(-c2cccnc2[C@H](C)OC)c2c3cc(ccc31)-c1cc(CF)cc(c1)C[C@H](NC(=O)[C@@H](COC1CN(C(=O)C#CC(C)(C)N(C)C)C1)C(C)C)C(=O)N1CCC[C@H](N1)C(=O)OCC(C)(C)C2 (atropisomer, axis not shown) : > 10 µM
